Hey, just so you know, these numbers are from PubChem BioAssay (NCI).

Test system: HS 578T breast
Assay: NCI-60 one-dose screen, 48 h (100 = growth as untreated, 0 = no growth, -100 = all killed)
Details: 10 µM unless noted
Procedure: Growth inhibition of the HS 578T human tumor cell line is measured as a screen for anti-cancer activity. Cells are grown in 96 well plates and exposed to the test compound for 48 hours. Compounds are tested at a single concentration, which is 10^-5 M for most compounds. The reported endpoint is percent growth (GI% or GIPRCNT), where numbers from 0 - 100% represent growth inhibition, and numbers from -100% - 0 represent cell death. For example, a value of 40 represents 60% growth inhibition. […]
About 83,000 compounds went through this panel and 20% of them were active in at least one assay; those are over-represented in the sample as a whole.
measurement label: growth (%)
Form entry: value (%) — number only.

Answered examples (2):
c1ccc(Cn2cc3c(c2)-c2oncc2CC3)cc1; 1.9
C#CCOc1ccc2ncnc(Nc3ccc(NC(=O)C=C)cc3)c2c1; 14.9

Here's the next entry for you.
Please fill in: growth reported for O=S(=O)(NCCCNc1nccc(-c2c(-c3ccc(F)c(O)c3)nc3sccn23)n1)c1ccccc1 = 72.8
